Data provenance is ChEMBL document CHEMBL3352613.

Data export: pIC50 values recorded with UniProt:P14902.
Sequence (P14902 whole entry): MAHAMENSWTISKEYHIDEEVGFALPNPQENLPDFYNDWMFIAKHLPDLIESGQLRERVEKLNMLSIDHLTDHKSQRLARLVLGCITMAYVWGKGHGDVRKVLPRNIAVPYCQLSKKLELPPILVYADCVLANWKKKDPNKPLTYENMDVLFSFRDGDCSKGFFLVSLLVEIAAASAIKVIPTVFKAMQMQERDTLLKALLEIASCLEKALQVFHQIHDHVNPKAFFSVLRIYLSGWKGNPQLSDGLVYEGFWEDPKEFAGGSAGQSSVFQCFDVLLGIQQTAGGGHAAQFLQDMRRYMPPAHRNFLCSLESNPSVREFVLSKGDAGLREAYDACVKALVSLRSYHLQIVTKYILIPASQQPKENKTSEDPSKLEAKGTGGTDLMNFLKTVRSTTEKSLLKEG
pIC50: −log10 of the molar value.

In: Need pIC50 of CCOC(=O)c1cnc2scc(C3=CCCCC3)n12 , thanks.
Out: < 4.00

In: Also check CCOC(=O)c1cnc2scc(-c3ccccc3C)n12
Out: < 4.00

In: Also check CCOC(=O)c1cnc2scc(-c3ccccc3)n12
Out: < 4.00

In: Also check CCOC(=O)c1cnc2scc(-c3cccc(C)c3)n12
Out: < 4.00
